The measured values listed here are drawn from ChEMBL document CHEMBL4385603.

This section lists Ki readings for Induced myeloid leukemia cell differentiation protein Mcl-1 (Homo sapiens, UniProt Q07820).
measurement_type: Ki (µM)

Known Ki results, listed for orientation:
                                   compound  value_reported
0  Cc1cc(OCCCc2c3n(c4c(-c5c(C)nn(C)c5C)c(Cl)ccc24)C[C@H](C)N(Cc2ccc(C(=O)O)o2)C3=O)cc(C)c1Cl            0.15
1  Cc1cc(OCCCc2c3n(c4c(-c5c(C)nn(C)c5C)c(Cl)ccc24)CC(C)CNC3=O)cc(C)c1Cl (configuration not stated)            0.15
2  Cc1cc(OCCCc2c3n(c4c(-c5c(C)nn(C)c5C)c(Cl)ccc24)C[C@@H](C)N(Cc2ccc(C(=O)O)cc2)C3=O)cc(C)c1Cl           0.053
3  Cc1cc(OCCCc2c3n(c4c(-c5c(C)nn(C)c5C)c(Cl)ccc24)C[C@H](C)N(Cc2ccc(C(=O)O)cc2)C3=O)cc(C)c1Cl           0.054

(P) Cc1cc(OCCCc2c3n(c4c(-c5c(C)nn(C)c5C)c(Cl)ccc24)CCC(C)N(Cc2ccc(C(=O)O)cc2)C3=O)cc(C)c1Cl (configuration not stated)
(Q) Cc1cc(OCCCc2c3n(c4c(-c5c(C)nn(C)c5C)c(Cl)ccc24)CCC(C)N(Cc2ccc(C(=O)O)o2)C3=O)cc(C)c1Cl (configuration not stated)
Hi there! Just curious which has the higher Ki between P and Q . Your answer should be the label attached to the chosen record.
Q
(Q: 0.12 µM, P: 0.042 µM)

* * *

pKi: −log10 of the molar value.
Parameter 'readout' = pKi; parameter 'system' = Induced myeloid leukemia cell differentiation protein Mcl-1 (Homo sapiens, UniProt Q07820).
Sequence (Q07820 whole entry): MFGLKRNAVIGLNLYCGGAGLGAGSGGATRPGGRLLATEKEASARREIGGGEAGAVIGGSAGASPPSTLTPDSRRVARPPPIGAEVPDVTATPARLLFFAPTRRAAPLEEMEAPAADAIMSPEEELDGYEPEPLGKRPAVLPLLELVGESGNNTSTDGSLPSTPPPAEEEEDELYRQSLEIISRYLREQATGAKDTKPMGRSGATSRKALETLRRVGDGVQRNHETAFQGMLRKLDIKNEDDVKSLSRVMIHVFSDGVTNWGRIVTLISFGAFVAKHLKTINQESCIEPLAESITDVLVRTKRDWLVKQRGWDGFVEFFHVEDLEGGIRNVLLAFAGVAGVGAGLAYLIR
measurement_type: pKi

>>> print(df.to_string())
                               given_smiles  measurement_type  value_reported
0  Cc1cc(OCCCc2c3n(c4c(-c5c(C)nn(C)c5C)c(Cl)ccc24)C[C@@H](C)NC3=O)cc(C)c1Cl               pKi            6.82

(A) Cc1cc(OCCCc2c3n(c4c(-c5c(C)nn(C)c5C)c(Cl)ccc24)CCCNC3=O)cc(C)c1Cl
(B) Cc1cc(OCCCc2c3n(c4c(-c5c(C)nn(C)c5C)c(Cl)ccc24)[C@@H](C)CN(Cc2ccc(C(=O)O)cc2)C3=O)cc(C)c1Cl
Among A and B , which shows a numerically higher pKi result? # reply format: chosen label
A

* * *

Parameter 'readout' = GI50; parameter 'system' = K562.

A selection of reference data follows.
                               given_smiles  value_reported
0  Cc1cc(OCCCc2c3n(c4c(-c5c(C)nn(C)c5C)c(Cl)ccc24)[C@H](C)CN(c2cc(C(=O)O)cc4c2OCO4)C3=O)cc(C)c1Cl       > 12.5 µM
1  Cc1cc(OCCCc2c3n(c4c(-c5c(C)nn(C)c5C)c(Cl)ccc24)[C@H](C)CN(c2ccc(C(=O)O)cc2)C3=O)cc(C)c1Cl       > 12.5 µM
2  Cc1cc(OCCCc2c3n(c4c(-c5c(C)nn(C)c5C)c(Cl)ccc24)[C@H](C)CN(c2cccc4c(C(=O)O)cccc24)C3=O)cc(C)c1Cl          2.5 µM
3  Cc1cc(OCCCc2c3n(c4c(-c5c(C)nn(C)c5C)c(Cl)ccc24)[C@H](C)CN(c2cccc(C(=O)O)c2)C3=O)cc(C)c1Cl       > 12.5 µM
4  Cc1cc(OCCCc2c3n(c4c(-c5c(C)nn(C)c5C)c(Cl)ccc24)[C@H](C)CN(c2cn(C)c4cc(C(=O)O)ccc24)C3=O)cc(C)c1Cl       > 12.5 µM

Consider the compound Cc1cc(OCCCc2c3n(c4c(-c5c(C)nn(C)c5C)c(Cl)ccc24)[C@H](C)CN(c2cc(C(=O)O)c4ccn(C)c4c2)C3=O)cc(C)c1Cl tested on K562; state its GI50.
> 12.5 µM

Fill: GI50 (K562) for this compound Cc1cc(OCCCc2c3n(c4c(-c5c(C)nn(C)c5C)c(Cl)ccc24)[C@H](C)CN(c2cc(C(=O)O)cc4c2ccn4C)C3=O)cc(C)c1Cl
> 12.5 µM
